Origin of values: the NIST ThermoML archive (doi:10.1021/acs.jced.7b00503)

Experiment: wn = mass fraction of the nth substance listed
Details: 323.15 K, Pendant drop shape, w1 = 0.25
VALUE_TYPE: surface tension liquid-gas (mN/m)

COMPOUND	ENDPOINT_VALUE
[Br-].[Na+] [sodium bromide] + O	74
[Br-].[K+] [potassium bromide] + O	71.86
[Cl-].[Na+] [sodium chloride] + O	78.45
[I-].[Na+] [sodium iodide] + O	70.95

----------
Assay: wn = mass fraction of the nth substance listed
Conditions: 313.15 K, Pendant drop shape, w1 = 0.15
VALUE_TYPE: surface tension liquid-gas (mN/m)

COMPOUND	VALUE_TYPE	ENDPOINT_VALUE
[Br-].[Na+] [sodium bromide] + O	surface tension liquid-gas	73.14
[Cl-].[K+] [potassium chloride] + O	surface tension liquid-gas	73.56
[Br-].[K+] [potassium bromide] + O	surface tension liquid-gas	71.74
[I-].[Na+] [sodium iodide] + O	surface tension liquid-gas	71.36
[Cl-].[Na+] [sodium chloride] + O	surface tension liquid-gas	74.9
